assay: SRB cytotoxicity, U251 glioblastoma cells; format: cell-based, human; details: human, U251 glioblastoma cells
OBSERVED PROPERTY: inhibition at 50 μM (%)
Record the value in %, omitting the unit from your answer.

Give me measured inhibition at 50 μM, please, for this compound: C=C(C)[C@@H]1CC[C@]2(C)CC[C@]3(C)[C@H](CC[C@@H]4[C@@]5(C)CC[C@H](O)C(C)(C)[C@@H]5CC[C@]43C)[C@@H]12 [lupeol (5), lupeol] 27.3

----------
system: U251 (glioblastoma); assay: SRB cytotoxicity, U251 glioblastoma cells; type: cell-based, human; conditions: Homo sapiens, U-251, read-out: IC50 U251
OBSERVED PROPERTY: pIC50
// field semantics: pIC50 = negative decimal log of concentration (mol/L)

Query pIC50 for COc1cc([C@@H]2c3cc4c(cc3[C@@H](O[C@@H]3O[C@@H]5CO[C@@H](C)O[C@H]5[C@H](O)[C@H]3O)[C@H]3COC(=O)[C@H]23)OCO4)cc(OC)c1O [etoposide, reference compound] 5.62
